system-name: T1, human tissue factor pathway inhibitor (TFPI) (human, UniProt P10646 29-304, limits assumed)
T1 construct: bought; also called hTFPI; human TFPI
T1 sequence (looked up): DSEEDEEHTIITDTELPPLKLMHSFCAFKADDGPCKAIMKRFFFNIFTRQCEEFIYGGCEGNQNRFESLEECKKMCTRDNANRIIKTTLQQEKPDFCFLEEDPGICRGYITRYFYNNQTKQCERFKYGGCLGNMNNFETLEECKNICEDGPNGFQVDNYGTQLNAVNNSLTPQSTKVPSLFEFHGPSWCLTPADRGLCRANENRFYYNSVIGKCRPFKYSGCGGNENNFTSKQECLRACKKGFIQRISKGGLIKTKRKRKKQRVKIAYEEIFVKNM
method: competitive ELISA
quantity: variant/HC_K99L (ratio)
Number only, in ratio; omit the unit.

binder	unit-info	variant/HC_K99L
2A8 HC S35D+S55R+K99L/LC D1S+I2Y+A13S+S21T+R28P+N29K+Y48F+N51V+E80M+S89A+D91W+D92S+G93S+V94T (Fab, V domains shown) VH: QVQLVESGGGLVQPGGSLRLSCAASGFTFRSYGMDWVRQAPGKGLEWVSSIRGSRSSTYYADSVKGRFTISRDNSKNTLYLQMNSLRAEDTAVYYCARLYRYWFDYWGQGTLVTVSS VL: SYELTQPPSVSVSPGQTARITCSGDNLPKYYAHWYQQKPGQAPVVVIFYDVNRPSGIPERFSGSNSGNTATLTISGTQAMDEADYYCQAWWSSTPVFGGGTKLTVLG	ratio	21.4

Could you now consider this next binder?
Query: Give me measured variant/HC_K99L, please, for this binder: 2A8 HC S31V+G33A+I51D+S55R+K99V/LC Y48F+D91L+V96W (Fab, V domains shown) VH: QVQLVESGGGLVQPGGSLRLSCAASGFTFRVYAMSWVRQAPGKGLEWVSSDRGSRSSTYYADSVKGRFTISRDNSKNTLYLQMNSLRAEDTAVYYCARVYRYWFDYWGQGTLVTVSS VL: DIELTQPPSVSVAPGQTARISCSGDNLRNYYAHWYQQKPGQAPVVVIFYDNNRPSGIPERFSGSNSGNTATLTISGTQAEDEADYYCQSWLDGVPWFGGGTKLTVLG
Reply: 9
